target under test: recombinant human CCR5 receptor (Homo sapiens)
test: MIP-1α radioligand binding assay (scintillation proximity)
assay conditions: displacement of 0.1 nM iodinated MIP-1α; membranes from Chinese hamster ovary cells expressing recombinant human CCR5; average if tested more than once
pIC50: −log10 of the molar value.
measured parameter: pIC50

smiles: CC1(CCS(=O)(=O)C2CCN(S(C)(=O)=O)CC2)CCN(CC[C@@H](c2cc(F)cc(F)c2)C2CCN(S(C)(=O)=O)CC2)CC1
pIC50: 8.70

P: COc1ccc(S(=O)(=O)CCC2(C)CCN(CC[C@@H](c3cc(F)cc(F)c3)N3CCN(S(C)(=O)=O)CC3)CC2)cc1
Q: CC1(CCS(=O)(=O)c2ccc(S(C)(=O)=O)cc2)CCN(CC[C@H](c2ccc(S(C)(=O)=O)cc2)c2cc(F)cc(F)c2)CC1
P or Q : whose pIC50 is greater? # respond with the chosen item's label
Q
(Q: 9.60, P: 8.30)

* * *

target under test: recombinant human CCR5 receptor (Homo sapiens, UniProt P51681)
Sequence (P51681 whole entry): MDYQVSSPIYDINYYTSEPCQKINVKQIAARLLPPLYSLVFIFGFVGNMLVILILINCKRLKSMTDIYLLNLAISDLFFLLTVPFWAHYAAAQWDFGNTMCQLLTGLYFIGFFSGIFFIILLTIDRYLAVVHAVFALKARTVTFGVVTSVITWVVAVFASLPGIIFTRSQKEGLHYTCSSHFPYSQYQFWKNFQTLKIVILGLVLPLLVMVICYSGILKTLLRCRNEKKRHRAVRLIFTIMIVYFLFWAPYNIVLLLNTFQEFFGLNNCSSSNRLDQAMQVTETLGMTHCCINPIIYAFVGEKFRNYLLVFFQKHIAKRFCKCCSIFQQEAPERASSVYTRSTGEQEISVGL
test: MIP-1α radioligand binding assay (scintillation proximity)
assay conditions: displacement of 0.1 nM iodinated MIP-1α; membranes from Chinese hamster ovary cells expressing recombinant human CCR5; average if tested more than once
pIC50: −log10 of the molar value.
measured parameter: pIC50

smiles: CC1(CCS(=O)(=O)c2ccc(S(C)(=O)=O)cc2)CCN(CC[C@@H](c2cc(F)cc(F)c2)N2CCN(S(C)(=O)=O)CC2)CC1
pIC50: 8.70

P: CC1(CCS(=O)(=O)c2ccc(S(C)(=O)=O)cc2)CCN(CC[C@@H](c2ccccc2)N2CCN(S(C)(=O)=O)CC2)CC1
Q: CC1(CCS(=O)(=O)C2CCN(C(=O)OCc3ccccc3)CC2)CCN(CC[C@@H](c2cc(F)cc(F)c2)C2CCN(S(C)(=O)=O)CC2)CC1
Which entry has a larger number for pIC50, P or Q ? Reply briefly: the label of your chosen item.
P
